System: Plasmodium falciparum
Test: Calibr Malaria Delayed Death Assay SOP
Format: functional, organism-based
Details: Plasmodium falciparum
Give measured IC50 for each item. Keep answers brief.
Hi! Could you send only the number? It should be in nM, unit omitted.

# lookup: IC50 of CN1CCN(S(=O)(=O)c2ccc(Cl)c(Cl)c2)c2cnccc21
557

CC[C@H]1CN2CC[C@H]1C[C@@H]2CNCc1ccc(OC(F)(F)F)cc1 , same question.
806

CC1CN(Cc2ccccc2Cn2cccn2)CCN1C (stereo unspecified) , same question.
1080

CS(=O)(=O)CCCNC1(c2cccc(Cl)c2)CCCC1 , same question.
870

CCC(C)(C)n1nnnc1C(c1cccs1)N1CCc2ccccc2C1 (stereo unspecified) , same question.
550

O=C(CC1CCCC1)NCCNCc1cccc2c1OCCO2 , same question.
938

Clc1ccccc1C1(c2ccnc(C3CC3)n2)CCNCC1 , same question.
536

Cc1nn(C)cc1C1=NS(=O)(=O)N(C)C(C(=O)Nc2ccc(Br)cc2)=C1 , same question.
238

Clc1cc(CN2CCCN3CCCC3C2)c2ncccc2c1 (stereo unspecified) , same question.
1300

CC(C)[C@H](CO)Nc1nccc(-c2c[nH]nc2-c2ccncc2)n1 , same question.
1130

CN(C)c1ccccc1CN1CCCCC1CNS(C)(=O)=O (stereo unspecified) , same question.
1080

* * *

Assay: microbe, parasite or virus in culture
Conditions: Mycobacterium tuberculosis, 72 h, read-out: pIC50 (converted)
ASSAY METRIC: IC50 (µM)
Hi! Could you send only the number? It should be in µM, unit omitted.

# lookup: IC50 of NCCCc1nc2ccccc2o1
211

Cc1nc(N)cc(N2CCCC(COc3cccc(F)c3)C2)n1 (configuration not stated) , same question.
46

O[C@@H]1CN(CC2=Cc3cc(Cl)ccc3OC2)CC[C@H]1N1CCCCCC1 , same question.
49.3

O=C(NCCO)c1ccc(OCc2cccs2)cc1 , same question.
378

Fc1cccc(N2C[C@H]3CCN(c4cccnc4)C[C@H]3C2)c1 , same question.
45.2

NC(=O)CSc1nnc(-c2cc(Br)ccc2O)[nH]1 , same question.
210

CCCC(C#N)NC(=O)c1ccn(-c2ccccc2)n1 (configuration not stated) , same question.
294

CN(CCc1ccccc1)CCS(=O)(=O)CCC(N)=O , same question.
442

Nc1cnn(Cc2ccccn2)c1 , same question.
206

CCOc1cc(Cl)ccc1CN , same question.
159

COc1ccc(-c2cccc(-c3ccn(CCN(C)C)n3)c2)nn1 , same question.
19.9

COCCC(CO)NC(=O)c1cnn(C(C)C)c1C (configuration not stated) , same question.
110

Clc1ccc(-c2noc(CN3CCCNCC3)n2)cc1 , same question.
213

N#CC1(C(=O)N2CCc3sccc3C2)CCCC1 , same question.
475

CCC(N)c1ccccc1OC (configuration not stated) , same question.
267

COc1ccccc1N1CCC(N)C1 (configuration not stated) , same question.
30.5

Cc1cc(N(C)Cc2ccsc2)n2nc(C)c(C)c2n1 , same question.
12.6

CCSc1nc2ccccc2c(=O)n1CCCO , same question.
181

CN(C)c1nccc(CNc2ccc(C#N)nc2)n1 , same question.
128

Cc1nc(C(=O)NCc2cccs2)ccc1C#N , same question.
82.4

c1cncc(-c2ccc3c(c2)CCC32CCNCC2)c1 , same question.
46.2
